- Tested on: Intestinal cells (Caco-2)
- assay_notes: Intestinal cells - cell viability
- Assay type: cell-based
- Set-up: unit not given here
- run_parameters: Time 4 h
The following compounds are listed with their measured Cell viability, Average values.
Number only, no unit.

# compound, Cell viability, Average
rows = [
    ("Cc1ncc(CO)c(CO)c1O.Cl [Vitamin B6, Pyridoxine HCI]", 9.105),
]

query: Record request: Cell viability, Average value, item COc1ccc2[nH]cc(CCNC(C)=O)c2c1 [Melatonin]
result: 6.965

query: # lookup: Cell viability, Average of O=C(/C=C/C=C/c1ccc2c(c1)OCO2)N1CCCCC1 [Piperine]
result: 14.125

query: Requested field: Cell viability, Average. Item: C=C1CC[C@H](O)C/C1=C/C=C1\CCC[C@]2(C)[C@@H]([C@H](C)CCCC(C)C)CC[C@@H]12 [Vitamin D3]
result: 16.325
